The following sequences are shown together with reported self-aminoacylation values.
Test system: biotinyl-Leu-oxazolone
Test: self-aminoacylation, catalytic enhancement (BLO) (fold over background); higher = more active; k-Seq, kA / k0A0; sequences stand for … in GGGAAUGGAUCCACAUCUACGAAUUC…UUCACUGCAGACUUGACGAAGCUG
Variants at the floor of the assay were thinned out.
OUTCOME_MEASURE: self-aminoacylation

{"RESIDUES": "AUUACCAUGCUCAUCGAGUGA [Fam2.1 aminoacylation ribozyme variant]", "REPORTED_MEASUREMENT": 2.12}
{"RESIDUES": "AUUCGCCUAGGUCAUAGGGUG [Fam2.2 aminoacylation ribozyme variant]", "REPORTED_MEASUREMENT": 2.47}
{"RESIDUES": "AUUCACCUACGUCAUCUGGUG [Fam2.2 aminoacylation ribozyme variant]", "REPORTED_MEASUREMENT": 2.24}
{"RESIDUES": "AUUGCCCUGGUCAUCGUGUGA [Fam2.1 aminoacylation ribozyme variant]", "REPORTED_MEASUREMENT": 3.19}
{"RESIDUES": "GUUCACCUAGGUCAUAGGGUG [Fam2.2 aminoacylation ribozyme variant]", "REPORTED_MEASUREMENT": 2.08}
{"RESIDUES": "AUACACCUAGGUCAUCGGCUG [Fam2.2 aminoacylation ribozyme variant]", "REPORTED_MEASUREMENT": 2.03}
{"RESIDUES": "AUUACCCUGGACAUCAAGUGA [Fam2.1 aminoacylation ribozyme variant]", "REPORTED_MEASUREMENT": 2.29}
{"RESIDUES": "AUUUCCCUGGUCAUCGAGCGA [Fam2.1 aminoacylation ribozyme variant]", "REPORTED_MEASUREMENT": 2.18}
{"RESIDUES": "CUACCUCAAACAAUCGGGCUG [Fam1A.1 aminoacylation ribozyme variant]", "REPORTED_MEASUREMENT": 2.4}

====

Test system: biotinyl-Leu-oxazolone
Assay: self-aminoacylation, catalytic enhancement (BLO) (fold over background); higher = more active; k-Seq, kA / k0A0; sequences stand for … in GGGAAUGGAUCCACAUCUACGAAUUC…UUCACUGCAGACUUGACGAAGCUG
Fewer inactive variants are shown than the library holds.
OUTCOME_MEASURE: self-aminoacylation

{"RESIDUES": "AUUAACCUAGGACAUCGGGUG [Fam2.2 aminoacylation ribozyme variant]", "REPORTED_MEASUREMENT": 3.2}
{"RESIDUES": "AUACUUCAAACAAUCGGCCUG [Fam1A.1 aminoacylation ribozyme variant]", "REPORTED_MEASUREMENT": 2.02}
{"RESIDUES": "CCACACUUCAAGCAAUCGGCU [Fam1B.1 aminoacylation ribozyme variant]", "REPORTED_MEASUREMENT": 2.08}
{"RESIDUES": "CCCCUCUUCAAGCAAUCGGUC [Fam1B.1 aminoacylation ribozyme variant]", "REPORTED_MEASUREMENT": 2.09}
{"RESIDUES": "AUUCACCCAGGUCGUCGGGUG [Fam2.2 aminoacylation ribozyme variant]", "REPORTED_MEASUREMENT": 2.84}
{"RESIDUES": "AUUACCCUUGUCAUCGUGUGA [Fam2.1 aminoacylation ribozyme variant]", "REPORTED_MEASUREMENT": 2.69}
{"RESIDUES": "AUUCACCCAGGUCAUAGGGUG [Fam2.2 aminoacylation ribozyme variant]", "REPORTED_MEASUREMENT": 2.46}
{"RESIDUES": "AUUCACCUAGGUCAUCGGCAG [Fam2.2 aminoacylation ribozyme variant]", "REPORTED_MEASUREMENT": 2.03}
{"RESIDUES": "AUUCACCUAGUUCAUAGGGUG [Fam2.2 aminoacylation ribozyme variant]", "REPORTED_MEASUREMENT": 3.8}

====

Tested on: biotinyl-Trp-oxazolone
Assay: self-aminoacylation, catalytic enhancement (BWO) (fold over background); higher = more active; k-Seq, kA / k0A0; sequences stand for … in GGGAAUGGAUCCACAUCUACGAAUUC…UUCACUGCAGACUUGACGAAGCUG
This sample holds only a part of the variants without activity.
The following sequences are shown together with reported self-aminoacylation values.

{"RESIDUES": "AUUAUCCUCGUCAUCGAGUGA [Fam2.1 aminoacylation ribozyme variant]", "self-aminoacylation": 3}
{"RESIDUES": "AAGUUUGCUAUUAGUCGCAGG [Fam3.1 aminoacylation ribozyme variant]", "self-aminoacylation": 2.01}
{"RESIDUES": "AAGUUUGCUAAUAGUCCCAAG [Fam3.1 aminoacylation ribozyme variant]", "self-aminoacylation": 2.12}
{"RESIDUES": "AAGUUUGCUAAUAGUCUCAAG [Fam3.1 aminoacylation ribozyme variant]", "self-aminoacylation": 4.26}
{"RESIDUES": "AUUGCCCUGGUCAUCGUGUGA [Fam2.1 aminoacylation ribozyme variant]", "self-aminoacylation": 3.2}
{"RESIDUES": "CCUCACUUCAAGCAAUCGGGC [Fam1B.1 aminoacylation ribozyme variant]", "self-aminoacylation": 3.32}
{"RESIDUES": "CUACUUCAAAAAAUCGGUAUG [Fam1A.1 aminoacylation ribozyme variant]", "self-aminoacylation": 2.5}
{"RESIDUES": "AAGUGUGCUAAUAGUCGCAAU [Fam3.1 aminoacylation ribozyme variant]", "self-aminoacylation": 2.01}
{"RESIDUES": "AAGGAUGCUAAUAGUCGCAAG [Fam3.1 aminoacylation ribozyme variant]", "self-aminoacylation": 5.63}
{"RESIDUES": "CCAGACUUCAAGAAAUCGGUC [Fam1B.1 aminoacylation ribozyme variant]", "self-aminoacylation": 6.84}
{"RESIDUES": "GAGUUUGCUAAAAGUCGCAAG [Fam3.1 aminoacylation ribozyme variant]", "self-aminoacylation": 5.66}
{"RESIDUES": "AUACUUCAAACAAUCGGCCUG [Fam1A.1 aminoacylation ribozyme variant]", "self-aminoacylation": 15.5}
{"RESIDUES": "GUGUUUGCUAAUAGUCGCAAG [Fam3.1 aminoacylation ribozyme variant]", "self-aminoacylation": 4.15}
{"RESIDUES": "AUUAACCUAGGACAUCGGGUG [Fam2.2 aminoacylation ribozyme variant]", "self-aminoacylation": 2.82}
{"RESIDUES": "CCACUUCAAACAAUCGGUAUG [Fam1A.1 aminoacylation ribozyme variant]", "self-aminoacylation": 12.7}
{"RESIDUES": "GUUCACCUAGGUCAUAGGGUG [Fam2.2 aminoacylation ribozyme variant]", "self-aminoacylation": 2.22}
{"RESIDUES": "CCCCACUUCAAGCAAUCGGUA [Fam1B.1 aminoacylation ribozyme variant]", "self-aminoacylation": 3.44}
{"RESIDUES": "AUUACCCUUGUCAUCGUGUGA [Fam2.1 aminoacylation ribozyme variant]", "self-aminoacylation": 2.88}
{"RESIDUES": "CCACUCUUCAAGCAAUCGGUC [Fam1B.1 aminoacylation ribozyme variant]", "self-aminoacylation": 15.1}
{"RESIDUES": "AAUUUUGCUGAUAGUCGCAAG [Fam3.1 aminoacylation ribozyme variant]", "self-aminoacylation": 2.31}
{"RESIDUES": "CUACUUCAAAUAAUCGGUCUG [Fam1A.1 aminoacylation ribozyme variant]", "self-aminoacylation": 10.5}
{"RESIDUES": "AUUCAGCUAGGUCAUCGGGUC [Fam2.2 aminoacylation ribozyme variant]", "self-aminoacylation": 3.24}
{"RESIDUES": "AAGUGUGCUCAUAGUCGCAAG [Fam3.1 aminoacylation ribozyme variant]", "self-aminoacylation": 2.34}
{"RESIDUES": "AAGUUGGCUAAUAGUCGCAAG [Fam3.1 aminoacylation ribozyme variant]", "self-aminoacylation": 2.29}
{"RESIDUES": "UUACUUCAAACAAUCGGUCAG [Fam1A.1 aminoacylation ribozyme variant]", "self-aminoacylation": 5.17}
{"RESIDUES": "GAGUUUUCUAAUAGUCGCAAG [Fam3.1 aminoacylation ribozyme variant]", "self-aminoacylation": 2.07}
{"RESIDUES": "AAGUUAGCUAAUAGGCGCAAG [Fam3.1 aminoacylation ribozyme variant]", "self-aminoacylation": 2.47}
{"RESIDUES": "UAGUUUCCUAAUAGUCGCAAG [Fam3.1 aminoacylation ribozyme variant]", "self-aminoacylation": 2.1}
{"RESIDUES": "AAGAUUGCUAAUAGUCGCCAG [Fam3.1 aminoacylation ribozyme variant]", "self-aminoacylation": 2.02}
{"RESIDUES": "AAGUUAGCUAGUAGUCGCAAG [Fam3.1 aminoacylation ribozyme variant]", "self-aminoacylation": 2.01}
{"RESIDUES": "AUUCACGUAGGUCAUCGAGUG [Fam2.2 aminoacylation ribozyme variant]", "self-aminoacylation": 2.73}
{"RESIDUES": "CGUCACUUCAAGCAAUCGGUC [Fam1B.1 aminoacylation ribozyme variant]", "self-aminoacylation": 11.1}
{"RESIDUES": "AUUGACCUAGCUCAUCGGGUG [Fam2.2 aminoacylation ribozyme variant]", "self-aminoacylation": 2.71}
{"RESIDUES": "CUGCUUCAAACAAUCGGUCAG [Fam1A.1 aminoacylation ribozyme variant]", "self-aminoacylation": 23}
{"RESIDUES": "AUUACCAUGCUCAUCGAGUGA [Fam2.1 aminoacylation ribozyme variant]", "self-aminoacylation": 2.15}
